The measurements presented in this section are drawn from patent US11395857B2.

Assay: Biodistribution of 68Ga-labeled peptide in mice bearing B16F10 mouse melanoma
Format: in vivo, C57BL/6J mice
Settings: whole blood, iv, total radioactivity, 2 h p.i. unblocked, C57BL/6J mice, B16F10 melanoma, read-out: Biodistribution, Blood
ENDPOINT NAME: tissue uptake at 2 h (%ID/g)
Answer with a number only, understood to be in %ID/g.

Which tissue uptake at 2 h is reported for this compound? CCCC[C@H](NC(=O)CN1CCC(NC(=O)CN2CCN(CC(=O)O)CCN(CC(=O)O)CCN(CC(=O)O)CC2)CC1)C(=O)N[C@H]1CC(=O)NCCCC[C@@H](C(N)=O)N(C)C(=O)[C@H](Cc2c[nH]c3ccccc23)N(C)C(=O)[C@H](CCCNC(=N)N)N(C)C(=O)[C@@H](Cc2ccccc2)NC(=O)[C@H](Cc2c[nH]cn2)N(C)C1=O [^68Ga-labeled CCZ01099, metal not drawn]
0.19

====

Experiment: Biodistribution of 68Ga-labeled peptide in mice bearing B16F10 mouse melanoma
Type: in vivo, C57BL/6J mice
Details: B16F10 tumour, iv, total radioactivity, 2 h p.i. unblocked, C57BL/6J mice, B16F10 melanoma, read-out: Biodistribution, B16F10 tumour
Experimental: The B16-F10 melanoma cell line (Mus musculus) used in the tumor model was obtained commercially from ATTC (CRL-6475). […] Similar to PET/CT imaging, tumour-bearing mice were injected with 1-2 MBq of ^68Ga-labeled CCZ01099 via tail vein under anesthesia with or without co-injection of 0.5 mg of MC1R-specific inhibitor BMS 470539. […] Minimal background tissue radioactivity accumulation was observed, except for kidney, which is expected as the radiolabeled peptides were cleared through the renal pathway.
ENDPOINT NAME: tissue uptake at 2 h

Which tissue uptake at 2 h is reported for this compound? CCCC[C@H](NC(=O)CN1CCC(NC(=O)CN2CCN(CC(=O)O)CCN(CC(=O)O)CCN(CC(=O)O)CC2)CC1)C(=O)N[C@H]1CC(=O)NCCCC[C@@H](C(N)=O)N(C)C(=O)[C@H](Cc2c[nH]c3ccccc23)N(C)C(=O)[C@H](CCCNC(=N)N)N(C)C(=O)[C@@H](Cc2ccccc2)NC(=O)[C@H](Cc2c[nH]cn2)N(C)C1=O [^68Ga-labeled CCZ01099, metal not drawn]
5.22 %ID/g

====

Experiment: Biodistribution of 177Lu-labeled αMSH analogues in mice bearing B16F10 mouse melanoma
Assay type: in vivo, C57BL/6J mice
Conditions: mouse, lungs, iv, total radioactivity; 1 h p.i., C57BL/6J mice, B16F10 melanoma; read-out: Biodistribution, Lungs
ENDPOINT NAME: tissue uptake at 1 h (%ID/g)
Only the number, expressed in %ID/g, is required.

COMPOUND	tissue uptake at 1 h, %ID/g
CCCC[C@H](NC(=O)CN1CCC(NC(=O)CN2CCN(CC(=O)O)CCN(CC(=O)O)CCN(CC(=O)O)CC2)CC1)C(=O)N[C@H]1CC(=O)NCCCC[C@@H](C(N)=O)N(C)C(=O)[C@H](Cc2c[nH]c3ccccc23)NC(=O)[C@H](CCCNC(=N)N)N(C)C(=O)[C@@H](Cc2ccccc2)NC(=O)[C@H](Cc2c[nH]cn2)NC1=O [^177Lu-labeled CCZ01106, metal not drawn]	0.6

tissue uptake at 1 h for CCCC[C@H](NC(=O)CN1CCC(NC(=O)[C@H](CCCCNC(=O)CN2CCN(CC(=O)O)CCN(CC(=O)O)CCN(CC(=O)O)CC2)NC(=O)[C@H](CCC(=O)O)NC(=O)CCCc2ccc(I)cc2)CC1)C(=O)N[C@H]1CC(=O)NCCCC[C@@H](C(N)=O)N(C)C(=O)[C@H](Cc2c[nH]c3ccccc23)N(C)C(=O)[C@H](CCCNC(=N)N)N(C)C(=O)[C@@H](Cc2ccccc2)NC(=O)[C@H](Cc2c[nH]cn2)N(C)C1=O [^177Lu-labeled CCZ01088, metal not drawn] ?
5.51

Also CCCC[C@H](NC(=O)CN1CCC(NC(=O)[C@H](CCCCNC(=O)CN2CCN(CC(=O)O)CCN(CC(=O)O)CCN(CC(=O)O)CC2)NC(=O)[C@H](CCC(=O)O)NC(=O)CCCc2ccc(I)cc2)CC1)C(=O)N[C@H]1CC(=O)NCCCC[C@@H](C(N)=O)N(C)C(=O)[C@H](Cc2c[nH]c3ccccc23)NC(=O)[C@H](CCCNC(=N)N)N(C)C(=O)[C@@H](Cc2ccccc2)NC(=O)[C@H](Cc2c[nH]cn2)NC1=O [^177Lu-labeled CCZ01118, metal not drawn] , if possible.
6.71

Here is the next compound: CCCC[C@H](NC(=O)CN1CCC(NC(=O)CN2CCN(CC(=O)O)CCN(CC(=O)O)CCN(CC(=O)O)CC2)CC1)C(=O)N[C@H]1CC(=O)NCCCC[C@@H](C(N)=O)N(C)C(=O)[C@H](Cc2c[nH]c3ccccc23)N(C)C(=O)[C@H](CCCNC(=N)N)N(C)C(=O)[C@@H](Cc2ccccc2)NC(=O)[C@H](Cc2c[nH]cn2)N(C)C1=O [^177Lu-labeled CCZ01099, metal not drawn]
0.54

Next entry: CCCC[C@H](NC(=O)CN1CCC(NC(=O)CN2CCN(CC(=O)O)CCN(CC(=O)O)CCN(CC(=O)O)CC2)CC1)C(=O)N[C@H]1CC(=O)NCCCC[C@@H](C(N)=O)NC(=O)[C@H](Cc2c[nH]c3ccccc23)NC(=O)[C@H](CCCNC(=N)N)NC(=O)[C@@H](Cc2ccccc2)NC(=O)[C@H](Cc2c[nH]cn2)NC1=O [^177Lu-labeled CCZ01048, metal not drawn, reference compound]
0.73

And what about the compound CCCC[C@H](NC(=O)CN1CCC(NC(=O)[C@H](CCCCNC(=O)CN2CCN(CC(=O)O)CCN(CC(=O)O)CCN(CC(=O)O)CC2)NC(=O)[C@H](CCC(=O)O)NC(=O)CCCc2ccc(I)cc2)CC1)C(=O)N[C@H]1CC(=O)NCCCC[C@@H](C(N)=O)NC(=O)[C@H](Cc2c[nH]c3ccccc23)NC(=O)[C@H](CCCNC(=N)N)NC(=O)[C@@H](Cc2ccccc2)NC(=O)[C@H](Cc2c[nH]cn2)NC1=O [^177Lu-labeled CCZ01082, metal not drawn] ?
5.11
